pKd: −log10 of the molar value.
Below, pKd values reported for Epidermal growth factor receptor (Homo sapiens) across several publications.
quantity: pKd

INSERT INTO results (molecule, result_value) VALUES
  ('COc1ccc(-c2cc3c(Oc4cccc(Br)c4)ncnc3[nH]2)cc1', '6.00 to 7.00'),
  ('C=CC(=O)Nc1cc(Nc2nccc(-c3cn(C)c4ccccc34)n2)c(OC)cc1N(C)CCN(C)CCOCCOCCOCCOCCOCCOCCOc1ccc(CNc2cc(N3CCCC[C@H]3CCO)nc3c(CC)cnn23)cn1', '5.60 to 6.30'),
  ('C=CC(=O)N[C@@H]1CN(c2nc(Nc3cn(CCCCNS(=O)(=O)c4ccc(Nc5ncc(Br)c(Nc6cccc(F)c6C(N)=O)n5)cc4)nc3OC)c3ncn(C)c3n2)CC1F (some centres unmarked)', '> 7.30'),
  ('COc1cccc(Nc2ncnc3[nH]c(-c4ccc(Br)cc4)cc23)c1', '6.00 to 7.00'),
  ('C=CC(=O)Nc1cc(Nc2nccc(-c3cn(C)c4ccccc34)n2)c(OC)cc1N(C)CCN(C)CCOCCOCCOCCOCCOc1ccc(CNc2cc(N3CCCC[C@H]3CCO)nc3c(CC)cnn23)cn1', '6.30 to 7.30'),
  ('C=CC(=O)Nc1cccc(Nc2nc(Nc3ccc(N4CCN(C(C)=O)CC4)cc3)ncc2C(F)(F)F)c1', 7.08),
  ('COc1ccc(-c2cc3c(N[C@@H](C)c4ccccc4)ncnc3n2C(C)C)cc1', '> 7.00'),
  ('C=C(COc1cc(Cl)cc(NC(=O)NCc2ccc3c(c2)CN(C2CCC(=O)NC2=O)C3=O)c1)C(=O)N[C@@H]1CN(c2nc(Nc3cn(C)nc3OC)c3ncn(C)c3n2)C[C@H]1F (some centres unmarked)', '6.30 to 7.30');
